ASSAY_PROTOCOL: Metabolic stability in mouse liver microsomes assessed metabolic bioavailability at 0.1 uM in presence of NADPH measured by LC-MS/MS analysis
Type: ADME, Microsome
CONDITION_SET: read-out: Stability
For each of the compounds below, state its Fh at 0.1 µM.
Numbers only, in %.

>>> result_number("N#Cc1cc(C(=O)c2cc(Cl)c(Cl)cc2O)[nH]n1")
10.2

Shift focus to the following entry.
// recorded Fh at 0.1 µM for O=C(c1cc(C(F)(F)F)n[nH]1)c1cc(Cl)c(Cl)cc1O : 10.1

====

For each entry below, report its Fh at 0.1 µM value.
ASSAY_PROTOCOL: Metabolic stability in dog liver microsomes assessed metabolic bioavailability at 0.1 uM in presence of NADPH measured by LC-MS/MS analysis
Type: ADME, Canis lupus familiaris, Microsome
CONDITION_SET: read-out: Stability
Give bare numbers, in %.

>>> result_number("N#Cc1cc(C(=O)c2cc(Cl)c(Cl)cc2O)[nH]n1")
9.79

Recorded result, O=C(c1cc(C(F)(F)F)n[nH]1)c1cc(Cl)c(Cl)cc1O , Fh at 0.1 µM: 7.07

Source of measurements: ChEMBL document CHEMBL5154852
